assay: Phase I study CXR1002-001: plasma pharmacokinetics (LC-MS/MS); type: in vivo, human; details: human, plasma, po, 1200 mg, Patient 038, 1200 mg weekly oral dose, Time 676 hr; read-out: Concentration (plasma level)
REPORTED_PROPERTY: concentration at 676 h

Lab book: concentration at 676 h of O=C(O)C(F)(F)C(F)(F)C(F)(F)C(F)(F)C(F)(F)C(F)(F)C(F)(F)F [CXR1002] noted as 708 µM

* * *

Assay: Phase I study CXR1002-001: plasma pharmacokinetics (LC-MS/MS)
Type: in vivo, human
Conditions: human, plasma, oral, 600 mg, Patient 021, 600 mg, person, plasma, 339 hr; read-out: Concentration
Excerpt: PK samples, PD (fasting) samples, blood glucose, and blood triglyceride samples, were taken over a 6-week period. Dose limiting toxicity (DLT) will be based on the toxicity assessments over the first 3-week period of the repeat dosing schedule. […]
REPORTED_PROPERTY: concentration at 339 h (µM)
The answer is to be given in µM; state only the numeric part.

// O=C(O)C(F)(F)C(F)(F)C(F)(F)C(F)(F)C(F)(F)C(F)(F)C(F)(F)F [CXR1002] : concentration at 339 h value = 653
